Measured values drawn from the supplement of paper PMC7877785 for this set.

# assayComment: self-splicing fitness, log relative to wild type (ln ratio); higher = more splicing; Tetrahymena group I intron in knt gene, E. coli kanamycin selection, DiMSum; sequences stand for … in CUCUCU…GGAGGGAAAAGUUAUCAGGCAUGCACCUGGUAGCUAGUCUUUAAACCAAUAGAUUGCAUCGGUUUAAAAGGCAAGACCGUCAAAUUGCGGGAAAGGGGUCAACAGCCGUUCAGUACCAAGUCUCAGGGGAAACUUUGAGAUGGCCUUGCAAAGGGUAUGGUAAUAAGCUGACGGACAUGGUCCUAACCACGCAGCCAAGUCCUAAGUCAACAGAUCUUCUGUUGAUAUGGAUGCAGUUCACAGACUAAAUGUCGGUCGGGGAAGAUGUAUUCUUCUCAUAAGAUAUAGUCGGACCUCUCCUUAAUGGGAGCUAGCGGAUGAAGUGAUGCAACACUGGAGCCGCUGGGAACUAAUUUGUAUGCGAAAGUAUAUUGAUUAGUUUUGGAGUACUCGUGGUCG;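 further: selection with 25 µg/mL kanamycin versus none on LB agar overnight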
# conditionDescription: 37 °C
Rule: self-splicing fitness (ln) under -2 gives label 0, otherwise label 1.

Below, 3 sequences whose answers are already recorded.
GUUUAGCAAUAUUACGAUCU; label 1
ACCUAGCAAUAUUACGACAG; label 1
AGGCAGCAAUAUUACGUUCG; label 1

Answer whether self-splicing fitness (ln) of CACUAGCAAUAUUACGUGAG is greater than or equal to -2.
label 0

And for UCUGAGCAAUAUUACGGGUC ?
label 0

And for CAACAGCAAUAUUACGACUU ?
label 1

And for AUCCAGCAAUAUUACGACAA ?
label 1

And for CAAGAGCAAUAUUACGGAGA ?
label 1
